Task for the reader: assign each of the following compounds its reported Fibrin % cell toxicity.
# System: primary rat microglia
# experimental-conditions: rat

Solved entries (count: 6):
Request: Could you share what Fibrin % cell toxicity was measured for CO/N=C(\C(=O)N[C@@H]1C(=O)N2C(C(=O)O)=C(COC(N)=O)CS[C@H]12)c1ccco1 [Cefuroxime] , tested on primary rat microglia?
Response: 1%

Request: Could you share what Fibrin % cell toxicity was measured for C#CCN[C@@H]1CCc2ccccc21 [Rasagiline, reference compound] , tested on primary rat microglia?
Response: 1%

Request: Could you share what Fibrin % cell toxicity was measured for COc1cc([C@@H]2c3cc4c(cc3[C@@H](O[C@@H]3O[C@@H]5CO[C@@H](c6cccs6)O[C@H]5[C@H](O)[C@H]3O)[C@H]3COC(=O)[C@H]23)OCO4)cc(OC)c1O [Teniposide, reference compound] , tested on primary rat microglia?
Response: 2%

Request: Could you share what Fibrin % cell toxicity was measured for C[C@H]1C[C@@H]2[C@H]([C@@H](O)C[C@@]3(C)[C@H]2CC[C@]3(O)C(=O)CO)[C@@]2(C)C=CC(=O)C=C12 [Methylprednisolone, reference compound] , tested on primary rat microglia?
Response: 3%

Request: Could you share what Fibrin % cell toxicity was measured for `CCn1cc(C(=O)O)c(=O)c2cc3c(cc21)OCO3` , tested on primary rat microglia?
Response: 0%

Request: Could you share what Fibrin % cell toxicity was measured for `Cc1cccc(Nc2ccccc2C(=O)O)c1C` , tested on primary rat microglia?
Response: 1%

Proceed to the following item.
Request: Could you share what Fibrin % cell toxicity was measured for C#C[C@]1(O)CC[C@H]2[C@@H]3CCC4=CC(=O)CC[C@@H]4[C@H]3CC[C@@]21C [Norethisterone] , tested on primary rat microglia?
Response: 1%

----------
Task for the reader: assign each of the following compounds its reported LPS % cell toxicity.
# System: primary rat microglia
# experimental-conditions: rat
Numbers only, in %.

Request: Consider the compound CN[C@H](CC(C)C)C(=O)N[C@H]1C(=O)N[C@@H](CC(N)=O)C(=O)N[C@H]2C(=O)N[C@H]3C(=O)N[C@H](C(=O)N[C@H](C(=O)O)c4cc(O)cc(O)c4-c4cc3ccc4O)[C@H](O)c3ccc(c(Cl)c3)Oc3cc2cc(c3O[C@@H]2O[C@H](CO)[C@@H](O)[C@H](O)[C@H]2O[C@H]2C[C@](C)(N)[C@H](O)[C@H](C)O2)Oc2ccc(cc2Cl)[C@H]1O [Vancomycin] and give its measured LPS % cell toxicity.
Response: 0

Hi there! I need LPS % cell toxicity for each item below, if you can.
1. Cc1ncc(CO)c(CO)c1O [Pyridoxine]
2. CCOc1ccc(NC(=O)CC(C)O)cc1 (stereo not drawn) [Bucetin]
3. COc1cc(NS(C)(=O)=O)ccc1Nc1c2ccccc2nc2ccccc12 [Amsacrine]
4. CCCc1ncc(C[n+]2ccccc2C)c(N)n1 [Amprolium]
5. CO[C@H]1C[C@H](O[C@@H]2/C(C)=C/C[C@@H]3C[C@@H](C[C@]4(CC[C@H](C)[C@@H](C5CCCCC5)O4)O3)OC(=O)[C@@H]3C=C(C)/C(=N/O)[C@H]4OC/C(=C\C=C\[C@@H]2C)[C@]43O)O[C@@H](C)[C@@H]1O [Selamectin, reference compound]

Response:
1: 0; 2: 0; 3: 54; 4: 0; 5: 1

----------
# Tested on: primary rat microglia
# experiment-notes: Cell toxicity (dead cells, size <150 μm2) in coated fibrin (cFib) assay;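 note: share of dead cells sized under 150 µm2 at 10 µM in fibrin-stimulated microglia HTS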
# experimental-conditions: primary microglia HTS, fibrin stimulation; decreased size (<150 μm^2) as marker of toxicity
property-label: Fibrin % cell toxicity (%)
Give bare numbers, in %.

Request: Consider the compound O=C(OC[C@H]1O[C@@H](OC(=O)c2cc(O)c(O)c(OC(=O)c3cc(O)c(O)c(O)c3)c2)[C@H](OC(=O)c2cc(O)c(O)c(OC(=O)c3cc(O)c(O)c(O)c3)c2)[C@@H](OC(=O)c2cc(O)c(O)c(OC(=O)c3cc(O)c(O)c(O)c3)c2)[C@@H]1OC(=O)c1cc(O)c(O)c(OC(=O)c2cc(O)c(O)c(O)c2)c1)c1cc(O)c(O)c(OC(=O)c2cc(O)c(O)c(O)c2)c1 [Tannic acid, reference compound] and give its measured Fibrin % cell toxicity.
Response: 0

Next:
Request: Consider the compound C[C@@H](O)[C@@H]1NC(=O)[C@H](CCCCN)NC(=O)[C@@H](Cc2c[nH]c3ccccc23)NC(=O)[C@H](Cc2ccccc2)NC(=O)[C@@H](NC(=O)[C@H](N)Cc2ccccc2)CSSC[C@@H](C(=O)N[C@H](CO)[C@@H](C)O)NC1=O [Octreotide] and give its measured Fibrin % cell toxicity.
Response: 1
